MEASUREMENT_KIND: melting point

{"columns": ["COMPOUND", "READOUT_VALUE"],
 "data": [
  ["CN1CCN(c2ccc(Nc3nc(NCC4CCCO4)c4ccccc4n3)cc2)CC1 (stereo not drawn)", "60.1 °C (dec.)"],
  ["CC(C)S(=O)(=O)c1ccccc1Nc1nc(Cl)ncc1C(=O)Nc1c(F)cccc1Cl", "225 to 227 °C"],
  ["Cl.O=C(O)Cc1ccc(Nc2ncc(Br)c(NCC3CCCO3)n2)cc1 (stereo not drawn)", "120 °C (dec.)"],
  ["Cl.Fc1cc(Nc2ncc(Br)c(NCC3CCCO3)n2)ccc1Cl (stereo not drawn)", "172 °C (dec.)"],
  ["CC(C)(C)OC(=O)N1CCN(c2ccc(Nc3ncc(C(=O)Nc4c(F)cccc4Cl)c(NCC4CCCO4)n3)cc2)CC1.Cl (stereo not drawn)", "184 to 186 °C"],
  ["CCS(=O)(=O)c1ccccc1Nc1nc(Nc2ccc(OC)cc2)ncc1C(=O)Nc1c(F)cccc1Cl", "263 to 265 °C"],
  ["COc1ccc(Nc2ncc(Br)c(NCC3CCCO3)n2)cc1F.Cl (stereo not drawn)", "169 °C (dec.)"],
  ["Cc1cnc(Nc2ccc(O)cc2)nc1NCC1CCCO1 (stereo not drawn)", "145.4 °C (dec.)"],
  ["Cl.Fc1cccc(Nc2ncc(Br)c(NCC3CCCO3)n2)c1 (stereo not drawn)", "194 to 197 °C"]
]}

====

Biological target: ACK1 (Homo sapiens, UniProt Q07912)
Sequence (Q07912 whole entry): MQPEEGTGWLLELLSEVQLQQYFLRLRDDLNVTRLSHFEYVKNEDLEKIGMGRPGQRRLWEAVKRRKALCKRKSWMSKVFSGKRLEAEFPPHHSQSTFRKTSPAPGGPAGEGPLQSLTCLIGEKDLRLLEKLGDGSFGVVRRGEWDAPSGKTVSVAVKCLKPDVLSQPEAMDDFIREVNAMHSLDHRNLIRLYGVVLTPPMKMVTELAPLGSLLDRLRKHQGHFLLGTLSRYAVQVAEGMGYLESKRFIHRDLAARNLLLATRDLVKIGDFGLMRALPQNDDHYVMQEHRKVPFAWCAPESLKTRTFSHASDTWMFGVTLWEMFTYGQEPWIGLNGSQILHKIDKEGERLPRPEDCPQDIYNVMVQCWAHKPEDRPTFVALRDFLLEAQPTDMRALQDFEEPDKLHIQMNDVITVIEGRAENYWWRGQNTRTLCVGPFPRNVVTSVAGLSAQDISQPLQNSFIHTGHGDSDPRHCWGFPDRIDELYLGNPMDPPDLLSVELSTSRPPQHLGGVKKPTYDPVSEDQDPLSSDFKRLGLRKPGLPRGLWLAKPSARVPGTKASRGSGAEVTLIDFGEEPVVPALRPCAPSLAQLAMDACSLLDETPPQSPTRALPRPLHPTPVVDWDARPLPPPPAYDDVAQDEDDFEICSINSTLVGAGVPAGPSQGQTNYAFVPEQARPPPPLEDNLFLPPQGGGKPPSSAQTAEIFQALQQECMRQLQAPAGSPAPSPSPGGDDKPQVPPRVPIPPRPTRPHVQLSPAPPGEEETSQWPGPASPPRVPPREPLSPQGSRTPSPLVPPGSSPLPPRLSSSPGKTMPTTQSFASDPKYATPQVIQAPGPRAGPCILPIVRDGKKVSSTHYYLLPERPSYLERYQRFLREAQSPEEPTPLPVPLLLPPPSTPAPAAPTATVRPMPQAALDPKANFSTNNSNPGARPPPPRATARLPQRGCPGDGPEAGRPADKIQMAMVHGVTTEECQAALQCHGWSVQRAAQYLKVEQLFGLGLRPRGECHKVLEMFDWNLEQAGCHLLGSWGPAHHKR
Assay: 32P Hotspot assay (Reaction Biology), ACK1 IC50
Format: biochemical
Conditions: Table 4; 10-dose; 10 μM ATP; read-out: Compound IC50 (M), ACK1
Procedure: 8 compounds were tested against […], ACK1, Src and ALK in various combinations. […] Reactions were carried out at 10 μM ATP.
Below, each entry is listed alongside its reported IC50.

{"columns": ["COMPOUND", "TARGET", "VALUE_UNITS", "IC50"],
 "data": [
  ["CN1CCN(c2ccc(Nc3ncc(Cl)c(NC[C@@H]4CCCO4)n3)cc2)CC1", "ACK1 (Homo sapiens, UniProt Q07912)", "M", "8.33e-08"],
  ["CN1CCN(c2ccc(Nc3ncc(Cl)c(NC[C@H]4CCCO4)n3)cc2)CC1", "ACK1 (Homo sapiens, UniProt Q07912)", "M", "5.78e-08"],
  ["Cl.O=C(Nc1c(F)cccc1Cl)c1cnc(Nc2ccc(N3CCC(C(=O)O)CC3)cc2)nc1NCC1CCCO1 (stereo not shown)", "ACK1 (Homo sapiens, UniProt Q07912)", "M", "3.22e-08"],
  ["CN1CCN(c2ccc(Nc3ncc(Cl)c(NCC4CCCO4)n3)cc2)CC1 (stereo not shown)", "ACK1 (Homo sapiens, UniProt Q07912)", "M", "5.44e-08"]
]}

====

In this section, each of the molecules is paired with its reported inhibition at 10 µM.
molecular target: UniProtKB Q07912; assay: ACK1 ELISA: phosphorylation of AKT-derived peptide; format: biochemical; details: 10 μM; Table 1, replicate values listed; read-out: % Inhibition at 10 μM (ELISA)

{"columns": ["MOLECULE", "inhibition at 10 µM [%]"],
 "data": [
  ["CCOC(=O)C1CCN(c2ccc(Nc3ncc(Cl)c(NC[C@@H]4CCCO4)n3)cc2)CC1.Cl", 54],
  ["CC(C)Sc1ccccc1Nc1nc(Nc2ccc(O)cc2)ncc1C(=O)Nc1c(F)cccc1Cl", 0],
  ["CN1CCN(c2ccc(Nc3ncc(Br)c(NCC4CCCO4)n3)cc2)CC1 (centres unmarked)", 95],
  ["Cl.O=C(O)c1cc(Nc2ncc(Br)c(NCC3CCCO3)n2)ccc1O (centres unmarked) [YL8-003-1, hydrochloride]", 27],
  ["Oc1ccc(Nc2ncc(Cl)c(NCC3CCCO3)n2)cc1 (centres unmarked)", 73],
  ["CN1CCN(c2ccc(Nc3nc(NCC4CCCO4)c4ccccc4n3)cc2)CC1 (centres unmarked)", 19],
  ["Cl.O=C(O)Cc1ccc(Nc2ncc(Cl)c(NCC3CCCO3)n2)cc1 (centres unmarked)", 72],
  ["Cl.O=C(O)CCc1ccc(Nc2ncc(Cl)c(NC[C@H]3CCCO3)n2)cc1", 61]
]}
